The values you see were collected from the supplement of paper PMC6522484.

Tested on: HCT116
METHOD_DESCRIPTION: cell viability (CellTiter-Glo) relative to plate median (fraction of plate median); higher = more viable cells
CONDITIONS: 5 µM; treatment time 24 h; reporter: TCF4/Wnt

[
  {
    "MOLECULE": "CC(C)CC(N(C)C)C1(c2ccc(Cl)cc2)CCC1 (centres undefined)",
    "cell viability": 0.924
  },
  {
    "MOLECULE": "O=C1C(Cl)=C(Cl)C(=O)C(Cl)=C1Cl",
    "cell viability": 0.977
  },
  {
    "MOLECULE": "C/C=C(/C)C(=O)O[C@H]1CC[C@@]2(C)[C@@H]3CC[C@H]4[C@]5(O)C[C@H](O)[C@@]6(O)[C@@H](CN7C[C@@H](C)CC[C@H]7[C@@]6(C)O)[C@]5(O)C[C@]42O[C@]13O",
    "cell viability": 0.892
  },
  {
    "MOLECULE": "CON1C(=O)[C@H]2NC(=O)[C@]13Oc1cc(O)c(Cl)cc1[C@@H]3SS2 [Aspirochlorine]",
    "cell viability": 0.918
  },
  {
    "MOLECULE": "CC[C@@H](C(=O)[C@@H](C)[C@@H](O)[C@H](C)[C@@H]1O[C@@H]([C@@H](CC)C(=O)O)CC[C@@H]1C)[C@H]1O[C@]2(C=C[C@@H](O)[C@]3(CC[C@@](C)([C@H]4CC[C@](O)(CC)[C@H](C)O4)O3)O2)[C@H](C)C[C@@H]1C",
    "cell viability": 0.978
  },
  {
    "MOLECULE": "Oc1ccc(Cl)cc1Cc1cc(Cl)ccc1O",
    "cell viability": 0.868
  },
  {
    "MOLECULE": "O=C(NC(=O)c1c(F)cccc1F)Nc1cc(Cl)c(OC(F)(F)C(F)C(F)(F)F)cc1Cl (centres undefined)",
    "cell viability": 0.984
  },
  {
    "MOLECULE": "CC(C)=CC1C(C(=O)OCc2cccc(Oc3ccccc3)c2)C1(C)C (centres undefined)",
    "cell viability": 1.02
  },
  {
    "MOLECULE": "NCCc1cc(O)c(O)cc1O",
    "cell viability": 1.03
  },
  {
    "MOLECULE": "COc1cc2ccc(=O)oc2c2ccoc12",
    "cell viability": 1.01
  },
  {
    "MOLECULE": "O=C(O)CF",
    "cell viability": 0.968
  },
  {
    "MOLECULE": "O=c1[nH]c2ccccc2n1C1CCN(CCCC(c2ccc(F)cc2)c2ccc(F)cc2)CC1",
    "cell viability": 0.922
  },
  {
    "MOLECULE": "c1ccc2c(c1)[nH]c1cnccc12",
    "cell viability": 1.01
  },
  {
    "MOLECULE": "NC(=O)c1cc([N+](=O)[O-])cc([N+](=O)[O-])c1",
    "cell viability": 1.01
  }
]
